- Tested on: MS2 coat protein
- protocol: apparent KD of MS2 coat protein; designed switch direction (-1 OFF switch, 1 ON switch): 1; higher = weaker reporter binding
- test-conditions: Eterna round: R95; input ligand: microRNA oligo, concentration not stated
Tick Y if apparent KD of MS2 coat protein is 0.07 µM or greater. Tick N if apparent KD of MS2 coat protein is less than 0.07 µM.

GGUCCAGCCUGAGCUGGACUAUAGUAUGUACAUGAGGAUCACCCAUGUCAUGUACAAGUAUGUUGUUUGUCUUGAAA [Sensorship 5 - Jieux - Sensor for hsa-mir-208a] (puzzle: Sensor for hsa-mir-208a) :: N

I'd appreciate it if you could say whether GGAAAACAUGAGGAUCACCCAUGUAAUAAUAUGGGAGGAUAUCAGAUUUAAUUUAAUUUAUGAGAAGGCCUAAAGG [Mat - Same State 1 - Mod of Eli - D64] (puzzle: Same State 1) has apparent KD of MS2 coat protein at least equal to 0.07 µM.
N

Quick check, apparent KD of MS2 coat protein >= 0.07 µM? AUCAAUCUAUCUCAGGAUAUCAUGUCAAAGACAUGAGGAUCACCCAUGUACCAGGAAACUGGUUAUGAGAAGGGAGAUAGAUUGA [Mat - Same State 2 - Mod - D30] (puzzle: Same State 2)
Y

hey, is apparent KD of MS2 coat protein for this one >= 0.07 µM? GUGCGGGUGCCACAGGAUAUACGUGGAUCGACAUGAGGAUCACCCAUGUAUAUCCUAAUAAUUGCGUAGAAGGGUGGUCAGCCGU [Enbebiqu] (puzzle: Same State 2)
Y

Textbook exercise: given the entry AAGAAUCUAUCUCAGGAUAUCAUGUCAAAGACAUGAGGAUCACCCAUGUACCAGGAAACUGGUUAUGAGAAGGGAGAUAGAUUCG [Mat - Same State 2 - Mod - D37] (puzzle: Same State 2) , state whether its apparent KD of MS2 coat protein is greater than or equal to 0.07 µM.
Y

Determine whether measured apparent KD of MS2 coat protein meets or exceeds 0.07 µM for GCAGUACACGCAGAGGAUAUGUCGGUAACGACAUGAGGAUCACCCAUGUGUACGGAAGUACUCAGACAGAAGGCUGUGUACUGCU [Same State 2 - Hyphema v.3] (puzzle: Same State 2)
Y

Check the entry AUUUAACAAGCUUUUUGCUCGUCUUAUAAACAUGAGGAUCACCCAUGUAAUAGCGUGAGAGUUAUUAUAUAAAUAAU [JMF 87] (puzzle: Sensor for hsa-mir-208a) : does apparent KD of MS2 coat protein equal or exceed 0.07 µM?
N

Dear colleague, could you confirm whether GAAGAACAUGAGGAUCACCCAUGUAAGCGGAAGCUAGGAUAUGCGGGAAAGAAAAGAGAAGCAGAAGGAGUAGGAA [JR_SS1_Sub028] (puzzle: Same State 1) has apparent KD of MS2 coat protein at or above 0.07 µM?
N

Is apparent KD of MS2 coat protein at least 0.07 µM? Consider AGUCCAGCCUGAGCUGGACAAAAGCAUGUACAUGAGGAUCACCCAUGUUCAUGUACAAGCUUUUUGCAAGUCAAAAU [Mat - hsa-mir-208a - Mod of JL - 80] (puzzle: Sensor for hsa-mir-208a)
N

Given the entry AAUUAUUUACAUGAGGAUCACCCAUGUAUUAUUACAAGCUUUAUCCUCGUUUUAUUUAUUAUUAUUAUUAUUAUUAA [benbell_design1] (puzzle: Sensor for hsa-mir-208a version 2) , answer whether its apparent KD of MS2 coat protein meets or surpasses 0.07 µM.
N
